Provenance of the data: patent US20250034268A1

The entries below come with measured MFI values attached.
Molecular target: T1, human BCMA expressed on the cell surface (human, UniProt Q02223 1-184)
T1 construct: The same molecule is used here for hBCMA-CHO GS cells and for the endogenous BCMA of the myeloma lines; also called Human BCMA CHO-S cell; H929
T1 sequence: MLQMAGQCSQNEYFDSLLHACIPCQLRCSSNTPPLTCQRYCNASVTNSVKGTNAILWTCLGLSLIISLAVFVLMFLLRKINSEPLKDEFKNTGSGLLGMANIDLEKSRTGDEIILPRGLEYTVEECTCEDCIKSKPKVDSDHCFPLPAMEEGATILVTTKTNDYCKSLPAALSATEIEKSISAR
Experiment: flow cytometry, 10 nM antibody on H929 cells
Kindly provide the number alone.

antibody ADI-38497 (antibody, V domains shown) VH: QLQLQESGPGLVKPSETLSLTCTVSGGSIVSSSYYWTWIRQPPGKGLEWIGSISIAGSTYYNPSLKSRVTISVDTSKNQFSLKLSSVTAADTAVYYCARDRGDQILDVWSQGTMVTVSS VL: DIQMTQSPSSLSASVGDRVTITCRASQSISRYLNWYQQKPGKAPKLLIYAASSLQSGVPSRFSGSGSGTDFTLTISSLQPEDFATYYCQQKYFDITFGGGTKVEIK ... 5670

antibody ADI-38481 (antibody, V domains shown) VH: QVQLVQSGAEVKKPGSSVKVSCKASGGTFSNDVISWVRQAPGQGLEWMGVIIPIFGIANYAQKFQGRVTITADESTSTAYMELSSLRSEDTAVYYCARGRGYYSSWLLDIWGQGTMVTVSS VL: DIQMTQSPSSLSASVGDRVTITCQASQDITNYLNWYQQKPGKAPKLLIYDASNLETGVPSRFSGSGSGTDFTFTISSLQPEDIATYYCQQAFDLITFGGGTKVEIK has a reported MFI of 6660
